Kindly state IC50 for each of the entries shown.
target: NRAS G12C (Homo sapiens (Human), UniProt P01111+P62937, G12C); test: Ras-Raf disruption/FRET/MOA assay (BRAF RBD, Cyclophilin A); type: biochemical; details: read-out: NRAS G12C FRET data IC50
Sequence (P01111 whole entry G12C, one chain of several): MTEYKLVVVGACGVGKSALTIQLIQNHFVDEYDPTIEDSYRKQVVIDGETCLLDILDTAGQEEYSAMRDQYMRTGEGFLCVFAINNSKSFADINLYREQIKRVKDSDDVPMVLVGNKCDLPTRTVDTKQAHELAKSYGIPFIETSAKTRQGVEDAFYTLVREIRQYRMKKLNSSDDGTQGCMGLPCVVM

These solved cases illustrate the format of a correct answer.
CCn1c(-c2cnccc2COC)c2c3cc(ccc31)-c1cc(O)cc(c1)C[C@H](NC(=O)[C@H](C(C)C)N(C)C(=O)c1ncc[nH]1)C(=O)N1CCC[C@H](N1)C(=O)OCC(C)(C)C2 = 100 to 1000 nM
CCn1c(-c2cccnc2[C@H](C)OC)c2c3cc(ccc31)-c1cc(O)cc(c1)C[C@H](NC(=O)[C@H](C(C)C)N(C)C(=O)[C@H]1CC[C@@H]1N)C(=O)N1CCC[C@H](N1)C(=O)OCC(C)(C)C2 = 10 to 100 nM

Next, consider the following molecule.
State the recorded IC50 for this entry: CCn1c(-c2cccnc2[C@H](C)OC)c2c3cc(ccc31)-c1csc(n1)C[C@H](NC(=O)[C@H](C(C)C)N(C)C(=O)[C@H]1CCN(CCO)C1)C(=O)N1CCC[C@H](N1)C(=O)OCC(C)(C)C2
1000 to 10000 nM

###

Kindly state pIC50 for each of the entries shown.
target: KRAS G12V (Homo sapiens (Human), UniProt P01116+P62937, G12V); assay: Ras-Raf disruption/FRET/MOA assay (BRAF RBD, Cyclophilin A); format: biochemical; conditions: read-out: KRAS G12V FRET IC50
Sequence (P01116 other isoform, or with tags, fused parts or gaps G12V, one chain of several): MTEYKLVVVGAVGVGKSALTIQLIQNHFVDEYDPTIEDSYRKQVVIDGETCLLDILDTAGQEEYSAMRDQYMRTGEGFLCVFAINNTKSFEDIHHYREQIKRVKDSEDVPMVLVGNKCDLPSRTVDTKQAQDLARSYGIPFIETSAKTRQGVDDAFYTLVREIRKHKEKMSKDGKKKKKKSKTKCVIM
pIC50: −log10 of the molar value.

Worked examples, 3 compounds total:
CCn1c(-c2cccnc2[C@H](C)OC)c2c3cc(ccc31)-c1csc(n1)C[C@H](NC(=O)[C@H](C(C)C)N(C)C(=O)N1CCC[C@@H]1CN(C)C)C(=O)N1CCC[C@H](N1)C(=O)OCC(C)(C)C2 = 5.00 to 6.00
CCn1c(-c2cccnc2[C@H](C)OC)c2c3cc(ccc31)-c1cc(O)cc(c1)C[C@H](NC(=O)[C@H](C(C)C)N(C)C(=O)[C@H]1CCCC[C@@H]1N)C(=O)N1CCC[C@H](N1)C(=O)OCC(C)(C)C2 = 6.00 to 7.00
CCn1c(-c2cccnc2[C@H](C)OC)c2c3cc(ccc31)-c1csc(n1)C[C@H](NC(=O)[C@H](C(C)C)N(C)C(=O)N(C)C[C@H]1CCN1C)C(=O)N1CCC[C@H](N1)C(=O)OCC(C)(C)C2 = 5.00 to 6.00

Dear reader, for each entry below, please note its pIC50.
1. CCn1c(-c2cccnc2[C@H](C)OC)c2c3cc(ccc31)-c1csc(n1)C[C@H](NC(=O)[C@H](C(C)C)N(C)C(=O)N1CC(N)C1)C(=O)N1CCC[C@H](N1)C(=O)OCC(C)(C)C2
2. CCn1c(-c2cccnc2[C@H](C)OC)c2c3cc(ccc31)-c1csc(n1)C[C@H](NC(=O)[C@H](C(C)C)N(C)C(=O)N1CCC1)C(=O)N1CCC[C@H](N1)C(=O)OCC(C)(C)C2
3. CCn1c(-c2cccnc2[C@H](C)OC)c2c3cc(ccc31)-c1cc(O)cc(c1)C[C@H](NC(=O)[C@H](C(C)C)N(C)C(=O)[C@H]1CCCO1)C(=O)N1CCC[C@H](N1)C(=O)OCC(C)(C)C2
4. CCn1c(-c2cccnc2[C@H](C)OC)c2c3cc(ccc31)-c1cc(O)cc(c1)C[C@H](NC(=O)[C@H](C(C)C)N(C)C(=O)OCc1ccccc1)C(=O)N1CCC[C@H](N1)C(=O)OCC(C)(C)C2
5. CCn1c(-c2cccnc2[C@H](C)OC)c2c3cc(ccc31)-c1cc(O)cc(c1)C[C@H](NC(=O)[C@H](C(C)C)N(C)C(=O)C1Cc3nccn3C1)C(=O)N1CCC[C@H](N1)C(=O)OCC(C)(C)C2 (some centres unmarked)

1. 6.00 to 7.00
2. 7.00 to 8.00
3. 6.00 to 7.00
4. 5.00 to 6.00
5. 7.00 to 8.00

For every listed record, write down its pIC50.
1. CCn1c(-c2cccnc2[C@H](C)OC)c2c3cc(ccc31)-c1csc(n1)C[C@H](NC(=O)[C@H](C(C)C)N1CCC3(COC3)C1)C(=O)N1CCC[C@H](N1)C(=O)OCC(C)(C)C2
2. CCn1c(-c2cccnc2[C@H](C)OC)c2c3cc(ccc31)-c1cc(O)cc(c1)C[C@H](NC(=O)[C@@H]1CCCCCN1C(C)=O)C(=O)N1CCC[C@H](N1)C(=O)OCC(C)(C)C2

6.00 to 7.00
6.00 to 7.00

Below are some compounds; for each one, tell me its pIC50.
1. CCn1c(-c2cccnc2[C@H](C)OC)c2c3cc(ccc31)-c1cc(O)cc(c1)C[C@H](NC(=O)[C@H](C(C)C)N(C)C(=O)N1CC(OC)C1)C(=O)N1CCC[C@H](N1)C(=O)OCC(C)(C)C2
2. CCn1c(-c2cccnc2[C@H](C)OC)c2c3cc(ccc31)C1=C[C@@H](O)CN(C1)C[C@H](NC(=O)[C@H]1[C@H](C)[C@@H]1C)C(=O)N1CCC[C@H](N1)C(=O)OCC(C)(C)C2
3. CCn1c(-c2cccnc2[C@H](C)OC)c2c3cc(ccc31)-c1cc(O)cc(c1)C[C@H](NC(=O)[C@H](C(C)C)N(C)C(=O)C1CCc3ncccc3C1)C(=O)N1CCC[C@H](N1)C(=O)OCC(C)(C)C2 (some centres unmarked)
4. CCn1c(-c2cc(N3CCN(C)CC3)cnc2[C@H](C)OC)c2c3cc(ccc31)-c1csc(n1)C[C@H](NC(=O)[C@H](C(C)C)N(C)C(=O)[C@@H]1OCC[C@@H]1c1cccnc1)C(=O)N1CCC[C@H](N1)C(=O)OCC(C)(C)C2

1: 6.00 to 7.00; 2: 7.00 to 8.00; 3: 7.00 to 8.00; 4: 6.00 to 7.00

# map each compound to its pIC50
1. CCn1c(-c2cccnc2[C@H](C)OC)c2c3cc(ccc31)-c1cc(O)cc(c1)C[C@H](NC(=O)[C@H](C(C)C)N(C)C(=O)[C@H]1CCN(C(=O)[C@@H]3CCCN3)C1)C(=O)N1CCC[C@H](N1)C(=O)OCC(C)(C)C2
2. CCn1c(-c2cccnc2[C@H](C)OC)c2c3cc(ccc31)-c1csc(n1)C[C@H](NC(=O)[C@H](C(C)C)N(C)C(=O)N1CCN3C(=O)CN(C)C[C@@H]3C1)C(=O)N1CCC[C@H](N1)C(=O)OCC(C)(C)C2
3. CCn1c(-c2cccnc2[C@H](C)OC)c2c3cc(ccc31)-c1cc(O)cc(c1)C[C@H](NC(=O)[C@H](C(C)C)N(C)C(=O)[C@H]1C[C@H]1O)C(=O)N1CCC[C@H](N1)C(=O)OCC(C)(C)C2

["7.00 to 8.00", "6.00 to 7.00", "7.00 to 8.00"]

###

Target: KRAS G12S (Homo sapiens (Human), UniProt P01116+P62937, G12S)
Sequence (P01116 other isoform, or with tags, fused parts or gaps G12S): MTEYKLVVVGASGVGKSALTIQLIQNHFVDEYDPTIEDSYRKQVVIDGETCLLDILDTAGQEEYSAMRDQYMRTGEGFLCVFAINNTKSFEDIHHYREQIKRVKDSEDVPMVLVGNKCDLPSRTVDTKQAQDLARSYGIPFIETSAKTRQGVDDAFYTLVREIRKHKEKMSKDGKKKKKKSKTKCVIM
Sequence (P62937 whole entry): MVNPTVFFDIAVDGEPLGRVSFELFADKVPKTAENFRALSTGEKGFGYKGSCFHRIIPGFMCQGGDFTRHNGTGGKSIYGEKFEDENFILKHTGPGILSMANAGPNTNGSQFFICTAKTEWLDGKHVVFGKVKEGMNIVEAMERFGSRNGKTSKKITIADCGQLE
Assay: Ras-Raf disruption/FRET/MOA assay (BRAF RBD, Cyclophilin A)
Assay type: biochemical
Conditions: read-out: KRAS G12S FRET IC50
Procedure: Compound is present in plate wells as a 10-point 3-fold dilution series starting at a final concentration of 30 μM. After incubation at 25° C. for 3 hours, a mixture of Anti-His Eu—W1024 and anti-GST allophycocyanin is then added to assay sample wells at final concentrations of 10 nM and 50 nM, respectively, and the reaction incubated for an additional 1.5 hours. […]
pIC50: −log10 of the molar value.
reported-metric: pIC50

The examples below pair each entry with its known result.
CCn1c(-c2cccnc2[C@H](C)OC)c2c3cc(ccc31)-c1cc(O)cc(c1)C[C@H](NC(=O)[C@H](C(C)C)N(C)C(=O)C13CCC(CC1)O3)C(=O)N1CCC[C@H](N1)C(=O)OCC(C)(C)C2 = 6.00 to 7.00
CCn1c(-c2cccnc2[C@H](C)OC)c2c3cc(ccc31)-c1csc(n1)C[C@H](NC(=O)[C@H](C(C)C)N(C)C(=O)N1CCN3C(=O)CN(C)C[C@@H]3C1)C(=O)N1CCC[C@H](N1)C(=O)OCC(C)(C)C2 = 6.00 to 7.00
CCn1c(-c2cnccc2COC)c2c3cc(ccc31)-c1cc(O)cc(c1)C[C@H](NC(=O)[C@H](C(C)C)N(C)C(=O)O[C@@H]1CCOC1)C(=O)N1CCC[C@H](N1)C(=O)OCC(C)(C)C2 = 5.00 to 6.00
CCn1c(-c2cccnc2[C@H](C)OC)c2c3cc(ccc31)-c1cc(O)cc(c1)C[C@H](NC(=O)[C@H](C(C)C)N(C)C(=O)C1CCC(C(F)(F)F)O1)C(=O)N1CCC[C@H](N1)C(=O)OCC(C)(C)C2 (stereo partly drawn) = 7.00 to 8.00

Quick one: give me pIC50 for each item below, same order please.
1. CCn1c(-c2cccnc2[C@H](C)OC)c2c3cc(ccc31)-c1cc(O)cc(c1)C[C@H](NC(=O)[C@H](C(C)C)N(C)C(=O)[C@H]1C[C@@H]1O)C(=O)N1CCC[C@H](N1)C(=O)OCC(C)(C)C2
2. CCn1c(-c2cccnc2[C@H](C)OC)c2c3cc(ccc31)-c1csc(n1)C[C@H](NC(=O)[C@H](C(C)C)N(C)C(=O)N1CC[C@@H]1C)C(=O)N1CCC[C@H](N1)C(=O)OCC(C)(C)C2

["7.00 to 8.00", "6.00 to 7.00"]
